- Test system: Candida albicans
- assay explanation: Antimicrobial activity against Candida albicans ATCC 14035 at 128 ug/ml after 22 hrs by micro broth dilution assay
- Type: functional, organism-based
Calls of active or inactive are those of the source. The calls are words filed in the database; no cut-off is given here. Where a SMILES comes first, the peptide text is derived from it.
parameter measured: Activity

## Input Data request, read-out Activity, for CC(C)[C@H]1NC(=O)[C@H](Cc2ccccc2)NC(=O)[C@@H](C(C)C)NC(=O)[C@@H](C(C)C)NC(=O)[C@@H](C(C)C)NC(=O)[C@H](Cc2ccccc2)NC(=O)[C@@H](Cc2ccccc2)NC1=O (HELM PEPTIDE1{F.[dV].[dF].F.[dV].[dV].[dV]}$PEPTIDE1,PEPTIDE1,1:R1-7:R2$$$V2.0)
## Output inactive

## Input Data request, read-out Activity, for CC[C@@H](C)[C@H]1NC(=O)[C@@H](C)NC(=O)[C@H](Cc2ccccc2)NC(=O)[C@@H](CC(C)C)NC(=O)[C@@H](C(C)C)NC(=O)[C@H](Cc2ccccc2)NC(=O)[C@@H]([C@H](C)CC)NC1=O (HELM PEPTIDE1{F.[dA].[dI].[dI].F.[dV].[dL]}$PEPTIDE1,PEPTIDE1,1:R1-7:R2$$$V2.0)
## Output inactive

## Input Data request, read-out Activity, for CC[C@@H](C)[C@H]1NC(=O)[C@H](Cc2ccccc2)NC(=O)[C@@H]([C@H](C)CC)NC(=O)[C@@H](C(C)C)NC(=O)[C@@H]([C@H](C)CC)NC(=O)[C@H]([C@@H](C)CC)NC(=O)[C@@H](C)NC1=O
## Output inactive

## Input Data request, read-out Activity, for CC(C)C[C@@H]1NC(=O)[C@@H](C(C)C)NC(=O)[C@@H](C(C)C)NC(=O)[C@@H](C(C)C)NC(=O)[C@H](Cc2ccccc2)NC(=O)[C@@H](Cc2ccccc2)NC(=O)[C@@H](C(C)C)NC1=O (HELM PEPTIDE1{F.[dV].[dV].[dV].L.[dV].[dF]}$PEPTIDE1,PEPTIDE1,1:R1-7:R2$$$V2.0)
## Output inactive
